- Test system: SF-295 CNS
- MEASUREMENT PROTOCOL: NCI-60 one-dose screen, 48 h (100 = growth as untreated, 0 = no growth, -100 = all killed)
- RUN CONDITIONS: 10 µM unless noted
The panel holds about 83,000 compounds, 20% with a hit somewhere; the sample as a whole holds those more often.

# COMPOUND, growth [%]
measured = [
    ("CCOC(=O)c1noc2c1CCc1cn(Cc3cc(OC)cc(OC)c3)cc1-2", 95.3),
    ("CCOC(=O)n1cnc2c(Cl)ncnc21", 101),
    ("O=C(NCCNc1nccc(-c2c(-c3cccc(O)c3)nc3sccn23)n1)Nc1cc(C(F)(F)F)cc(C(F)(F)F)c1", 66.7),
    ("Cc1cccc(Cc2cnc(NC(=O)CCc3ccc(C)o3)s2)c1", 10.4),
    ("Cc1cn(-c2cc(C(=O)Nc3cccc(-n4ccc5c(NC(=O)c6ccccc6)nccc54)c3)cc(C(F)(F)F)c2)cn1", -12.3),
    ("COc1ccc(/C=C/C(=O)c2ccc(Oc3ncnc4ccccc34)cc2)cc1OC", 85.7),
    ("Nc1nc(-c2cc3c(cc2Cl)NC(=O)/C3=C/c2ccccc2)cs1", 70),
    ("C=C1C(=O)O[C@H]2[C@H]1CC/C(C(=O)Nc1ccc(OC)c(C(N)=O)c1O)=C\\CC[C@@]1(C)O[C@@H]21", 94.9),
    ("CCCc1nn2c(CCC(=O)c3nc4ccc([N+](=O)[O-])cc4[nH]3)nnc2s1", 104),
    ("CCCCCCCCCCCCCCCCCCNCc1ccc(Cl)cc1", -46.8),
]
